subject_of_test: S. pyogenes SKKanGAS, kanamycin survival, BacTiterGlo, 6 h
test_name: S. pyogenes SKKanGAS kanamycin growth inhibitors – SKKanGAS strain, luminescence, dose confirmation, streptokinase promoter inhibitor project, dose response (AID 1902);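 note: lower survival reflects blocked streptokinase promoter driving kanamycin resistance gene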
Activity calls are given as the source filed them.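 Rule for the calls: active = EC50 no more than a set limit of log units above the highest dose; inactive = the rest.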
Give one outcome, nothing more. List: active, inactive

Some solved entries appear below for comparison.
In [3]: df
Out[3]:
                                   compound  discrete_label
0  O=C(NCc1ccc2c(c1)OCO2)C(=O)NCC1OCCN1S(=O)(=O)c1ccc(Br)cc1 (stereo unspecified)        inactive
1  COc1ccc(C2CC(O)(c3ccccc3)Oc3c(C)ccc(C)c32)cc1 (stereo unspecified)        inactive
2  CC(C)Cc1nnc(NC(=O)CCC(=O)N2CCN(c3ccccc3)CC2)s1        inactive
3      COc1ccc(/C=C/c2ccc3cccc(O)c3n2)cc1Br          active
4   O=C(NNc1c2ccccc2nc2ccccc12)c1ccc(O)cc1O          active

Moving on to the next compound.
Request: How was O=S(=O)(Nc1cccc2ncccc12)c1cccs1 classified in this test?
Response: active
